target: Metallo-beta-lactamase (Pseudomonas stutzeri); test: Ratio of Kcat to Km for Pseudomonas stutzeri beta-lactamase DIM-1by UV-spectrophotometry; parameters: unit not given here; conditions: Stutzerimonas stutzeri
ENDPOINT LABEL: Ratio

COMPOUND	TESTED TARGET	MEASURED
C[C@@H](O)[C@H]1C(=O)N2C(C(=O)O)=C(SCCNC=N)C[C@H]12 [IMIPENEM ANHYDROUS]	Metallo-beta-lactamase (Pseudomonas stutzeri)	440
C[C@@H](O)[C@H]1C(=O)N2C(C(=O)O)=C(S[C@@H]3CN[C@H](C(=O)N(C)C)C3)[C@H](C)[C@H]12	Metallo-beta-lactamase (Pseudomonas stutzeri)	200
CC1(C)S[C@@H]2[C@H](NC(=O)[C@H](C(=O)O)c3ccsc3)C(=O)N2[C@H]1C(=O)O	Metallo-beta-lactamase (Pseudomonas stutzeri)	15000
CC1(C)S[C@@H]2[C@H](NC(=O)[C@H](N)c3ccccc3)C(=O)N2[C@H]1C(=O)O	Metallo-beta-lactamase (Pseudomonas stutzeri)	180
CC(C)(O/N=C(\C(=O)N[C@@H]1C(=O)N2C(C(=O)[O-])=C(C[n+]3ccccc3)CS[C@H]12)c1csc(N)n1)C(=O)O	Metallo-beta-lactamase (Pseudomonas stutzeri)	60

###

We begin with a simple list: items and their reported MIC.
system: Escherichia coli; assay: Antimicrobial activity against Escherichia coli TOP10 harboring beta-lactamase DIM-1 by agar dilution method; assay type: functional
ENDPOINT LABEL: MIC (µg/mL)

COMPOUND	ENDPOINT LABEL	SCALE UNIT	COMPARISON OPERATOR	MEASURED
CCN1CCN(C(=O)N[C@@H](C(=O)N[C@@H]2C(=O)N3[C@@H]2SC(C)(C)[C@@H]3C(=O)O)c2ccccc2)C(=O)C1=O [PIPERACILLIN]	MIC	µg/mL	>	512
CC1(C)S[C@@H]2[C@H](NC(=O)[C@H](C(=O)O)c3ccsc3)C(=O)N2[C@H]1C(=O)O [TICARCILLIN]	MIC	µg/mL	>	512
CC(C)(O/N=C(\C(=O)N[C@@H]1C(=O)N2C(C(=O)[O-])=C(C[n+]3ccccc3)CS[C@H]12)c1csc(N)n1)C(=O)O [CEFTAZIDIME]	MIC	µg/mL	=	256
CC1(C)S[C@@H]2[C@H](NC(=O)[C@H](N)c3ccc(O)cc3)C(=O)N2[C@H]1C(=O)O [AMOXICILLIN]	MIC	µg/mL	>	512
CO/N=C(\C(=O)N[C@@H]1C(=O)N2C(C(=O)O)=C(COC(C)=O)CS[C@H]12)c1csc(N)n1 [CEFOTAXIME]	MIC	µg/mL	=	256
C[C@H]1[C@H](NC(=O)/C(=N\OC(C)(C)C(=O)O)c2csc(N)n2)C(=O)N1S(=O)(=O)O [AZTREONAM]	MIC	µg/mL	=	0.25
C[C@@H](O)[C@H]1C(=O)N2C(C(=O)O)=C(SCCNC=N)C[C@H]12 [IMIPENEM ANHYDROUS]	MIC	µg/mL	=	2
CO[C@@]1(NC(=O)Cc2cccs2)C(=O)N2C(C(=O)O)=C(COC(N)=O)CS[C@@H]21 [CEFOXITIN]	MIC	µg/mL	=	512
CO/N=C(\C(=O)N[C@@H]1C(=O)N2C(C(=O)[O-])=C(C[N+]3(C)CCCC3)CS[C@H]12)c1csc(N)n1	MIC	µg/mL	=	1
